Origin of measurements: PubChem BioAssay (NCI)

Item-by-item account of TGI
# Test system: A498 renal
# TEST: NCI tumour cell line growth inhibition, 48 h

[
  {
    "COMPOUND": "COc1ccc(/C=C/C(=O)Oc2ccc(/C=C3\\CCCCC3=O)cc2)cc1",
    "LT GT EQ": ">",
    "TGI / µM": 100
  },
  {
    "COMPOUND": "C=C1CC[C@@H]2C(C)(C)C(O)CCC2(C)C1COc1ccc2ccc(=O)oc2c1 (stereo not given in full)",
    "LT GT EQ": "=",
    "TGI / µM": 56.8
  },
  {
    "COMPOUND": "CCN(CCCl)CCCCNc1c2ccccc2nc2ccc(OC)cc12",
    "LT GT EQ": "=",
    "TGI / µM": 0.875
  },
  {
    "COMPOUND": "O=P(Nc1ccccc1)(Oc1ccccc1)N1CCN(c2ccccc2)CC1 (stereo not given)",
    "LT GT EQ": "=",
    "TGI / µM": 35.6
  },
  {
    "COMPOUND": "CCN1C(Cl)=NS(=O)(=O)c2ccccc21",
    "LT GT EQ": "=",
    "TGI / µM": 44.6
  },
  {
    "COMPOUND": "CN1N=C(c2ccncc2)OC1c1ccc(Cl)cc1Cl (stereo not given)",
    "LT GT EQ": ">",
    "TGI / µM": 100
  },
  {
    "COMPOUND": "Clc1ccc(CN2COc3c(ccc4cccnc34)C2)cc1Cl",
    "LT GT EQ": "=",
    "TGI / µM": 11.8
  },
  {
    "COMPOUND": "COc1cc(C(=O)/C=C/c2cc(-c3cc(OC)c(OC)c(OC)c3)n[nH]2)cc(OC)c1OC",
    "LT GT EQ": "=",
    "TGI / µM": 3.59
  },
  {
    "COMPOUND": "CC(C)(C)c1ccc2c(c1)S(=O)(=O)Nc1cccc(c1)NS(=O)(=O)c1cc(C(C)(C)C)ccc1OCCOCCO2",
    "LT GT EQ": ">",
    "TGI / µM": 100
  },
  {
    "COMPOUND": "CC(C)(C)c1ccc(-n2c3nc(=O)n(-c4ccccc4C(F)(F)F)c(=O)c-3cc3ccccc32)cc1",
    "LT GT EQ": "=",
    "TGI / µM": 76.3
  }
]
